system: SNB-75; test: NCI tumour cell line growth inhibition, 48 h
Active and inactive are the calls of the source. Cut-off read from the data, not from the text of the source: active = GI50 up to about 1.1 µM and inactive = higher.
Use one of these outcomes when replying: active, inactive

Observe how each entry below is paired with its result.
O=C(CN1CCOCC1)NC1=Nc2ncccc2C(=O)NN1 :: inactive
O=C1Nc2ccccc2C(=O)/C1=C/NC(=S)NC1CCCCC1 :: inactive
CCOC(=O)c1cc(Cl)ccc1OC(N)=O :: inactive
CC1(c2ccc(F)cc2)C(C#N)C(=O)NC(=O)C1C#N (stereo unspecified) :: inactive
O=C(Nc1ccccc1)c1cc(S(=O)(=O)NC2=Nc3ccc(Cl)cc3C(c3ccccc3)N2)c(SSc2cc(Cl)c(C(=O)Nc3ccccc3)cc2S(=O)(=O)NC2=Nc3ccc(Cl)cc3C(c3ccccc3)N2)cc1Cl (stereo unspecified) :: inactive
CC(=O)O[C@H]1C(=O)[C@@]2(C)[C@H]([C@H](OC(=O)c3ccccc3)[C@]3(O)C[C@H](OC(=O)[C@H](O)[C@@H](NC(=O)c4cccc(N=[N+]=[N-])c4)c4ccccc4)C(C)=C1C3(C)C)[C@]1(OC(C)=O)CO[C@@H]1C[C@@H]2O :: active
CCOC(=O)C1(N)CCc2[nH][nH]c(=O)c2C1 (stereo unspecified) :: inactive
O=NNc1cnc(O)nc1O :: inactive

Call for entry CN1C2CCC1CC(CCNC(c1ccccc1)c1ccccc1)C2 (stereo unspecified) :
inactive

Call for entry CC(C)(C)OC(=O)NCCC(=O)NC1(c2cc3ccccc3s2)CCCCC1 :
inactive

Call for entry CCOC(=O)CN1C(=O)C(=O)N(c2ccc(OC)c3ccccc23)C1=O :
inactive

###

system: SK-MEL-2; experiment: NCI tumour cell line growth inhibition, 48 h
Calls of active or inactive are those of the source. Rule as the data show it: active = GI50 up to about 1.1 µM and inactive = higher.
recorded metric: GI50

O=C1NC(=S)NC(=O)C1=Cc1ccc(-c2ccccc2)cc1 :: > 100 µM (inactive)
CCOC(=O)CN1C(=O)C(=O)N(c2ccc(OC)c3ccccc23)C1=O :: > 100 µM (inactive)
NNC(=O)c1ccccc1Nc1nc(-c2cccs2)nc2ccc(Br)cc12 :: > 100 µM (inactive)
CN1C(=O)C2(C)SC1(c1ccccc1)C1C(=O)N(c3ccccc3)C(=O)C12 (centres undefined) :: 75 µM (inactive)
NCc1ccc(-c2ccc(-c3ccc(-c4ccc(CN)s4)s3)s2)s1 :: > 100 µM (inactive)

Value of measured GI50 for the entry N=C(N)N/N=C/c1c(-c2ccc(Cl)c([N+](=O)[O-])c2)nc2sc(Cl)cn12 : 1.69 µM (inactive)

Value of measured GI50 for the entry C#CCOCn1cnc2ncnc(Cl)c21 : > 100 µM (inactive)

Value of measured GI50 for the entry O=C(CC(O)c1cccnc1)CC(O)c1cccnc1 (centres undefined) : 18.9 µM (inactive)

Value of measured GI50 for the entry O=c1oc2ccc([N+](=O)[O-])cc2cc1-c1csc(-c2ccccc2)n1 : > 100 µM (inactive)

Value of measured GI50 for the entry CN1CCC2(CC1)SC[C@H]1C(=O)N(c3ccc(Cl)cc3)C(=O)N12 : > 100 µM (inactive)

Value of measured GI50 for the entry C/C(=N\n1c(Cc2ccccc2)n[nH]c1=O)c1ccc([N+](=O)[O-])cc1 : > 100 µM (inactive)

Value of measured GI50 for the entry CC1(C)CC[C@]2(C(=O)O)CC[C@]3(C)[C@H](C(=O)C=C4[C@@]5(C)C=C(C#N)C(=O)C(C)(C)[C@@H]5CC[C@]43C)[C@@H]2C1 : 1 µM (active)

Value of measured GI50 for the entry CC1CCN(c2cc(-c3cc4ccccc4o3)oc(=O)c2C#N)CC1 : > 100 µM (inactive)

Value of measured GI50 for the entry Cc1cc2c(cc1C)[n+]([O-])c(C(=O)N1CCN(c3ccc([N+](=O)[O-])cc3)CC1)c(C)[n+]2[O-] : 38.5 µM (inactive)

Value of measured GI50 for the entry CC(C)/C(Cl)=N\OC(=O)Nc1ccc(C#N)cc1 : 11.8 µM (inactive)

Value of measured GI50 for the entry CC(=O)Oc1c2oc3cc(O)c(O)cc3c2c(OC(C)=O)c2oc3cc(O)c(O)cc3c12 : 20.5 µM (inactive)

Value of measured GI50 for the entry CCOC(=O)c1cc2cc(C)cc(C(=O)c3ccc([N+](=O)[O-])cc3)c2[nH]1 : > 100 µM (inactive)

Value of measured GI50 for the entry COc1cc(OC)c(OC)cc1/C=N/NC(=O)N/N=C/c1cc(OC)c(OC)cc1OC : > 100 µM (inactive)

Value of measured GI50 for the entry O/N=C/c1ncccc1C1OCCO1 : > 100 µM (inactive)

Value of measured GI50 for the entry CC(C)[C@H]1NC(=O)[C@H]2N=C(S[C@H]2C)[C@@H]2CCCN2C(=O)[C@H](Cc2ccccc2)NC(=O)[C@@H]2CSC(=N2)[C@@H](Cc2ccccc2)NC(=O)[C@@H]2CSC1=N2 : 18.3 µM (inactive)

Value of measured GI50 for the entry Cc1nc2ccccc2c(=O)n1NC(=S)Nc1ccc(Cl)cc1[N+](=O)[O-] : > 100 µM (inactive)

Value of measured GI50 for the entry N#Cc1ccc([N+](=O)[O-])cc1NC(N)=S : > 100 µM (inactive)

Value of measured GI50 for the entry ClC[Si]12OCCN(CCO1)CCO2 : > 100 µM (inactive)

Value of measured GI50 for the entry Oc1cc(O)c2ccc(-c3ccc(O)c(O)c3)[o+]c2c1 : > 100 µM (inactive)

Value of measured GI50 for the entry Cc1ccc2c(CC(=O)O)cc(=O)oc2c1 : > 100 µM (inactive)

Value of measured GI50 for the entry C[C@@]12CCCc3coc(c31)C(=O)c1cc3c(cc12)C(=O)C=CC3=O : 15.4 µM (inactive)

Value of measured GI50 for the entry COC(=O)c1ccc(/C=N/c2cc(C)nn2-c2ccccc2)cc1 : 49 µM (inactive)

###

tested on: MDA-MB-435; experiment: NCI tumour cell line growth inhibition, 48 h
The source made the active and inactive calls. Rule as the data show it: active = GI50 up to about 1.1 µM and inactive = higher.
Use one of these outcomes when replying: active, inactive

CC1(CO)OC(n2cnc3cncnc32)CC1O (stereo not drawn) :: inactive
C=CCn1c(=O)ccn(/C(=C/C(=O)OCC)C(=O)OCC)c1=O :: inactive
Oc1cc(-c2cccc(F)c2)nc2cc3c(cc12)OCO3 :: active

Call for entry CCOC(=O)c1c(N2CCCC2)[nH]c(=O)c(C(c2c(O)c(C(=O)OCC)c(N3CCCC3)[nH]c2=O)C(C)C)c1O :
inactive

Call for entry CCN(CC)CC[n+]1ccc2c(C)c3[nH]c4ccccc4c3c(C)c2c1 :
active

Call for entry NNC(=O)c1ccccc1Nc1nc(-c2cccs2)nc2ccc(Br)cc12 :
inactive

Call for entry N#CC1CCCC2SC(F)(F)C(F)(F)C12 (stereo not drawn) :
inactive

Call for entry CC(C)(Cl)C(Br)CCC(C)(Br)C(Br)CBr (stereo not drawn) :
inactive

###

tested on: M14; experiment: NCI tumour cell line growth inhibition, 48 h
The source made the active and inactive calls. No stated cut-off is given here; in the data, active = GI50 up to about 1.1 µM and inactive = higher.
Recorded GI50 values for a group of molecules are listed next.

Some molecules with known GI50 results, for comparison:
CCCNC(=O)N1CC(CN2CCN(c3ccccc3)CC2)O/C1=N/C(=O)Nc1ccccc1 (centres undefined) :: 65.9 µM (inactive)
Cc1ccc(S(=O)(=O)CC2CCCn3c2c(C#N)c2ccccc23)cc1 (centres undefined) :: > 100 µM (inactive)
O=C1Nc2ccccc2C(=O)/C1=C/NC(=S)NC1CCCCC1 :: > 100 µM (inactive)
CC(C)/C(Cl)=N\OC(NC(=O)P(=O)(c1ccccc1)c1ccccc1)(C(F)(F)F)C(F)(F)F :: 4.14 µM (inactive)
C=C1C(=O)O[C@@H]2[C@H]1C[C@H](I)[C@@]1(C)CC[C@H](O1)[C@](C)(I)CCCC(C)[C@@H]2O (some centres undefined) :: 4.68 µM (inactive)

Value of measured GI50 for the entry CC(Oc1ccc(Cl)cc1Cl)C(=O)NN1C(=O)CC(=O)N(c2ccccc2)C1=S (centres undefined) : 73.3 µM (inactive)

Value of measured GI50 for the entry [N-]=[N+]=Nc1nc2ccccc2c(N=[N+]=[N-])c1Cl : > 100 µM (inactive)

Value of measured GI50 for the entry CC1CCN(c2cc(-c3cc4ccccc4o3)oc(=O)c2C#N)CC1 : > 100 µM (inactive)

Value of measured GI50 for the entry C=CCn1c(=O)ccn(/C(=C/C(=O)OCC)C(=O)OCC)c1=O : 13.5 µM (inactive)

Value of measured GI50 for the entry CCC1N2CCCCC2[C@@H]2c3[nH]c4ccccc4c3CCN12 (some centres undefined) : > 100 µM (inactive)

Value of measured GI50 for the entry Oc1cc(O)c2ccc(-c3ccc(O)c(O)c3)[o+]c2c1 : > 100 µM (inactive)

Value of measured GI50 for the entry NCc1ccc(-c2ccc(-c3ccc(-c4ccc(CN)s4)s3)s2)s1 : > 100 µM (inactive)

Value of measured GI50 for the entry N#Cc1c(C#N)c(-c2ccco2)n(/N=C/c2ccco2)c1N : > 100 µM (inactive)
